Test system: CAKI-1 renal
assay-summary: NCI-60 one-dose screen, 48 h (100 = growth as untreated, 0 = no growth, -100 = all killed)
stated-conditions: 10 µM
Procedure: Growth inhibition of the CAKI-1 human tumor cell line is measured as a screen for anti-cancer activity. Cells are grown in 96 well plates and exposed to the test compound for 48 hours. Compounds are tested at a single concentration, which is 10^-5 M for most compounds. The reported endpoint is percent growth (GI% or GIPRCNT), where numbers from 0 - 100% represent growth inhibition, and numbers from -100% - 0 represent cell death. For example, a value of 40 represents 60% growth inhibition. […]
This is part of a sample that, as a whole, favours compounds with a hit. Of some 83,000 tested, about 20% had one in any assay.
List of growth values.

molecule | growth, %
COc1ccc(-c2ccc3c4c(cccc24)C(=O)N(N2C(=O)c4cccc5cccc(c45)C2=O)C3=O)cc1 | 75.2
C=CCn1c(SCC(=O)Nc2cccc(C(=O)/C=C/c3ccc(C)cc3)c2)nc2ccccc2c1=O | 80
NS(=O)(=O)c1ccc(Nc2nc(N/N=C/c3ccc(F)cc3)nc(Nc3ccccc3)n2)cc1 | 56.8
O=[N+]([O-])c1ccc(-c2nnc(SCc3ccc(O)c4ncccc34)n2-c2ccccc2)cc1 | 30.1
O=S(=O)(Nc1ccc2c(c1)OC(F)(F)O2)c1ccc(-c2cnc(C3CC3)o2)cc1 | 17.5
COCCOc1ccc(-c2csc(NC(C)=O)n2)cc1NS(=O)(=O)c1cccc2c(N(C)C)cccc12 | 71.3
COC[C@]12CC[C@@H](C)[C@H](C)[C@H]1C1=CC[C@@H]3[C@@]4(C)CCCNC(C)(C)[C@@H]4CC[C@@]3(C)[C@]1(C)CC2 | 35
CCOC(=O)c1c(NC(=O)c2cccc(C(F)(F)F)c2)sc2c(CN3CCN(C)CC3)c(O)ccc12 | -73.9
COc1ccc(NC(=O)[C@H](C)NC(=O)OC(C)(C)C)cc1C(=O)Nc1cccc(-c2cc(=O)c3c(OC)c(OC)c(OC)cc3o2)c1 | 17.4
CCOC(=O)c1c(Nc2ccccc2)nn2c(-c3ccc(Br)cc3)ccnc12 | 57.6
CC1=C2C(=C[C@@](C)(COS(N)(=O)=O)[C@@H]2O)C(=O)[C@](C)(O)C12CC2 | 85.8
Brc1cccc(/C=N/Nc2nc(N/N=C/c3cccc(Br)c3)nc(N3CCOCC3)n2)c1 | 15.4
CC1CCc2c(sc3nc(SCC(=O)N/N=C/c4cccc(O)c4O)n(-c4ccccc4)c(=O)c23)C1 (stereo not given) | 76.3
COc1cc2c3c(n(CCCN4CCC[C@H]4C(N)=O)c(=O)c2cc1OC)-c1cc2c(cc1C3=O)OCO2 | 14.6
CCn1c2ccc(/C=N/NS(=O)(=O)CCN(C)C)cc2c2cc(/C=N/NS(=O)(=O)CCN(C)C)ccc21 | 82.1
COc1ccc([C@@H]2[C@@H](O)C(=O)N2c2cc(OC)c(OC)c(OC)c2)cc1Cl | 30.6
O=S(=O)(NC1CC2CCC1C2)c1ccc2c(c1)C(=NO)c1cc(S(=O)(=O)NC3CC4CCC3C4)ccc1-2 (stereo not given) | -97.5
CS(=O)(=O)c1ccc2c(c1)c1c(n2C(=O)c2ccc(Cl)cc2)CCCC1 | 37.1
C(=C(\C1=NCCN1)n1cnc2ccccc21)/c1cccc2ccccc12 | 68.7
CCC(=O)Nc1cc(Nc2cc(NC3CC3)n3ncc(C#N)c3n2)ccc1C | 14.7
CCN1CCN(Cc2ccc(C(=O)Nc3nc4ccc(Oc5ccnc(C(=O)NC)c5)cc4s3)cc2C(F)(F)F)CC1 | 47.2
C/C=C/C=C1\C[C@H]2CO[C@H](O2)C1=O | 98
N#C/C(=C\c1ccc(Cl)cc1Cl)C(N)=O | 90.8
Cc1cn(-c2cc(NC(=O)c3cncc(C#Cc4cnc5ccc(O[C@H]6CCOC6)nn45)c3)cc(C(F)(F)F)c2)cn1 | 88.5
CCN1C(=O)N(CC)C2SC(N/N=C/c3ccccc3F)=NC21 (stereo not given) | 31.3
C#C[C@]1(O)CC[C@H]2[C@@H]3CC=C4c5sc(Nc6cccc(C)n6)nc5CC[C@]4(C)[C@H]3CC[C@@]21C | 2.65
CS(=O)(=O)c1nccc(-c2c(-c3ccc(F)c(OCc4ccccc4)c3)nc3sccn23)n1 | 93.6
CC1(C)CC[C@]2(C(=O)N3CCCN(CC#N)CC3)CC[C@]3(C)C(=CC[C@@H]4[C@@]5(C)CC[C@H](O)C(C)(C)[C@@H]5CC[C@]43C)[C@H]2C1 | 43.7
CCOc1c(C#N)c(Nc2ccc(S(N)(=O)=O)cc2)c(C#N)c2nnc(C)n12 | 88.7
Cc1ccc(Nc2ncnc3c2c(C)nn3-c2ccc([N+](=O)[O-])cc2)cc1 | 63.6
COc1ccc(/C=C/C(=O)c2nnn(-c3ccc(C(=O)O)cc3)c2C)cc1OC | 95.9
C=C(C)[C@@H]1CC[C@]2(C)[C@H](CC=C3[C@@H]4CC(C)(C)CC[C@]4(C(=O)NCC#CCN4CCN(C)CC4)CC[C@]32C)[C@@]1(C)CCC#N | 30.7
COc1ccc(Cn2cc3c(c2-c2cc(OC)c(OC)c(OC)c2)CCCc2cnoc2-3)cc1N | 31.5
O=C(CCCCCCN1CC(=O)N2[C@@H](c3cccc(Cl)c3)c3[nH]c4ccccc4c3C[C@H]2C1=O)NO | 47.7
CSc1ccc(/C(=N/N=C(N)N)c2ccccc2)cc1 | 42
